Taken from paper PMC9482650.

So I've got a bunch of binders here, and I need their pKd values.
# system tested: T1, LIN7B, Q9HAP6
# T1 sequence (Q9HAP6 88-185, limits assumed, looked up): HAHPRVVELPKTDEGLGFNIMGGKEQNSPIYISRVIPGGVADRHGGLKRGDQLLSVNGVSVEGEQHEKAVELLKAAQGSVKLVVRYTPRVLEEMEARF
# test method notes: holdup assay
# Set-up: key: below the threshold = too weak to quantify, mostly under pKd 3.1 to 4
# experimental context: plain residues with an end cap or a label only (N-terminal biotin on a linker: ado-ado)
Give bare numbers.

Before answering, review these 3 worked examples.
>>> print(df.to_string())
                        binder  observable  reported_result
0  LSEFKAMDSI [CTNNA1, P35221]         pKd             3.74
1  EALLQMESVA [CAVIN3, Q969G5]         pKd             3.57
2  YLEPVLSSEL [ATP2A2, P16615]         pKd             3.83

Let us move to another entry and its pKd.
Per the record, AKPSRISTVV [IQSEC2, Q5JU85] has pKd of 3.73
